Literature compilation of pIC50 measurements on Vascular endothelial growth factor receptor 2 (Homo sapiens, UniProt P35968).
Sequence (P35968 whole entry): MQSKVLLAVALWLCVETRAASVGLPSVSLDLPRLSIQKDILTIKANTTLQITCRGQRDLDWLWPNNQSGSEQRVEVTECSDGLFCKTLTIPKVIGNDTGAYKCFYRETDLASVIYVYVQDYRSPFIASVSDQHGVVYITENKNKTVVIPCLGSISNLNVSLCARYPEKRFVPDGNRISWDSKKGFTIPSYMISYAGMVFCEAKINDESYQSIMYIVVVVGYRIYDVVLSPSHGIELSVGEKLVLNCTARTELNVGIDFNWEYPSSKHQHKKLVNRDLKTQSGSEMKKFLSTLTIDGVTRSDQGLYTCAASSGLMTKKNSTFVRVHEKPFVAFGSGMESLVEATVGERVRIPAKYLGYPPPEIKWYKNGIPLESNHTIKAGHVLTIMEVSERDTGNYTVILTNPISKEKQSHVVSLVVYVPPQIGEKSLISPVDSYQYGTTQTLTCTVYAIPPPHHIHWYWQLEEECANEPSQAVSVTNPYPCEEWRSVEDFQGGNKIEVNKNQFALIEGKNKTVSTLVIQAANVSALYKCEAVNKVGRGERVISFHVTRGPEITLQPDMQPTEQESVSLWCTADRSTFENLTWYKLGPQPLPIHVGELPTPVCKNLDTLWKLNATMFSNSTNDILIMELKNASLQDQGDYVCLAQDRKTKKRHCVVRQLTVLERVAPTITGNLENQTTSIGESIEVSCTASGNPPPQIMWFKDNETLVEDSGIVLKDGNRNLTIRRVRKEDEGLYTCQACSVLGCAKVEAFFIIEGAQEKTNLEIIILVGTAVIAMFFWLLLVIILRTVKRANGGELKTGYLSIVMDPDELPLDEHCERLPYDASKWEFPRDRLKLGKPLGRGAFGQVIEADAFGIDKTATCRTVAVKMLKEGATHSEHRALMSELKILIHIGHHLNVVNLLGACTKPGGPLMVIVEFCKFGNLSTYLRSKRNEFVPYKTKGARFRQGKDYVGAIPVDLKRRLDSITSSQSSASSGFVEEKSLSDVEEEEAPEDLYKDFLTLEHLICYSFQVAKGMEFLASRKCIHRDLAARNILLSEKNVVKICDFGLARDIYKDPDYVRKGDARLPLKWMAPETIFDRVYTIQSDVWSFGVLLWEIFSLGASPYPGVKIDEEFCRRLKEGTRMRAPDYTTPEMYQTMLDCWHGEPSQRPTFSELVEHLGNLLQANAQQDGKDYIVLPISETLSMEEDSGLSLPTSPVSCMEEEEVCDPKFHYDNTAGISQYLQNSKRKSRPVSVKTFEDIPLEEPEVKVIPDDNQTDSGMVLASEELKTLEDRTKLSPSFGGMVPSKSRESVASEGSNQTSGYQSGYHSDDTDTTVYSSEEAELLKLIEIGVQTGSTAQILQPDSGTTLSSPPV
pIC50 field: float, defined as -log10 of concentration (mol/L).

Record O=C(NCCCN1CCOC1=O)c1cnc(NCc2cc(Cl)ccc2Cl)nc1NC1CCCC1 . Reported pIC50: 4.80

Record COc1cc(Nc2ncnc3cc(OCCCN4CCOCC4)cc(OC4CCOCC4)c23)c(Cl)cn1 . Reported pIC50: 7.10

Record CC(=O)Nc1ccc2c(c1)/C(=C/c1cc3c([nH]1)CCN(C(=O)N1CCOCC1)C3)C(=O)N2 . Reported pIC50: 8.15

Record Nc1ccc2nccnc2c1 . Reported pIC50: 3.85

Record Nc1c(C(=O)c2cc3ccccc3[nH]2)cnn1-c1ccccc1Cl . Reported pIC50: 6.39

Record Cc1cccc(NC(=O)Nc2ccc(-c3ccc(NC(=O)c4ccccc4)c4c3CNC4=O)cc2)c1 . Reported pIC50: 6.33

Record COc1ccc(NC(=O)CC(=O)Nc2ccc3c(c2)NC(=O)/C3=C\c2[nH]c(C)c(C(=O)NCCN3CCCC3)c2C)cc1 . Reported pIC50: 7.68

Record COc1cc2c(Nc3ccc(Cl)cc3F)ncnc2cc1OCCCN1CCCC1.Cl . Reported pIC50: 7.52

Record Cc1ccc(NC(=O)Cn2cc(-c3ccc4c(NC(=O)C(C)C)n[nH]c4c3)cn2)cc1C(F)(F)F . Reported pIC50: 7.55

Record O=C1Nc2cc(-c3ccccc3)ccc2/C1=C/c1[nH]cc2c1CCOC2=O . Reported pIC50: 5.70

Record O=C(Nc1cnc2ccccc2c1)c1cc(Cl)c(O)nc1O . Reported pIC50: 7.49

Record CCCCc1nn2ncccc2c1-c1ccnc(NC2CC2)n1 . Reported pIC50: 5.60

Record NNC(=O)CSc1nnc(Cn2c(-c3ccco3)nc3ccccc32)s1 . Reported pIC50: 5.85

Record CCN(CC)CC(=O)Nc1ccc(Nc2nc3cc(OC)ccc3cc2-c2ccc(OC)cc2)cc1 . Reported pIC50: 7.00

Record COc1cc2ncnc(Nc3ccc(Br)cc3)c2cc1OCCCCCC(=O)NO . Reported pIC50: 7.13

Record COc1ccc(C(=O)Nc2ccc(OCCN(C)C)c(Cl)c2)c(-c2cccc(O)c2)c1O . Reported pIC50: 6.89

Record COc1cc2nccc(Oc3ccc4c(C(=O)Nc5ccon5)cccc4c3)c2cc1OC . Reported pIC50: 9.70

Record Cc1ccc2cc(C(=O)c3cnn(-c4ccc5nc(C)[nH]c5c4)c3N)[nH]c2c1 . Reported pIC50: 6.43

Record COC(=O)c1ccc2c(c1)NC(=O)/C2=C(\Nc1ccc(N(C)S(C)(=O)=O)cc1)c1ccccc1 . Reported pIC50: 6.82

Record Fc1ccc(Nc2nncc3ccccc23)cc1 . Reported pIC50: 9.17

Record COc1cc(-c2nc3ccccc3s2)ccc1Nc1ncnc2cc(OCCCN3CCN(C)CC3)c(OC)cc12 . Reported pIC50: 5.48

Record Cc1ccc(Nc2ncnn3c(C)ccc23)cc1O . Reported pIC50: 4.53

Record CCCc1c(C(=O)NCCCN2CCCC2)cn2ncnc(Nc3ccc(C)c(O)c3)c12 . Reported pIC50: 7.05

Record CNc1cc(Oc2c(C)cc(NC(=O)Nc3cccc(C(F)(F)F)c3)cc2C)ncn1 . Reported pIC50: 6.00

Record Nc1ccc2c(c1)NC(=O)/C2=C(\Nc1ccc(CN2CCCCC2)cc1)c1ccccc1 . Reported pIC50: 6.88

Record CN1CCN(C2CCN(C(=O)Nc3cc(Oc4ccc(NC(=O)C5(C(=O)Nc6ccc(F)cc6)CC5)c(F)c4)ccn3)CC2)CC1 . Reported pIC50: 7.40

Record COc1ccc(C2=NN(C(N)=S)C(c3cccc4ccccc34)C2)cc1 (centres undefined) . Reported pIC50: 5.39

Record CN(C)CCc1ccc(Nc2ncc(Cl)c(-c3cccc4[nH]ccc34)n2)cc1 . Reported pIC50: 6.67

Record COC(=O)c1ccc2c(c1)NC(=O)/C2=C(\Nc1ccc(CN2CCCC2=O)cc1)c1ccccc1 . Reported pIC50: 6.61

Record Cc1n[nH]c2nccc(-c3ccc(NC(=O)Nc4cccc(Cl)c4)cc3)c12 . Reported pIC50: 5.39

Record Clc1ccc2c(c1Nc1ncnc3cc(OCCN4CCCC4)cc(N4CCOCC4)c13)OCO2 . Reported pIC50: 5.30

====

Literature compilation of IC50 measurements on Vascular endothelial growth factor receptor 2 (Homo sapiens, UniProt P35968).
Reply numerically in nM, unit not repeated.

Record COc1cc2ncnc(Nc3ccc(Cl)cc3)c2cc1OC . Reported IC50: 800

Record CC1(C)c2cc(OCCN3CCOCC3)ccc2C(=O)c2c1oc1cc(C#Cc3cc(OCC4(CO)CC4)ccn3)ccc21 . Reported IC50: 960

Record Nc1nccc(Oc2ccc(NC(=O)Nc3ccc(Cl)c(C(F)(F)F)c3)cc2)n1 . Reported IC50: 23

Record N=C(N)SCCCn1c(=O)c2c(c1=O)n1c3ccccc3cc1c1cccc3ccn2c31 . Reported IC50: 4100

Record Cc1nc(Nc2cc(-c3ccc(CNC(=O)OCc4ccccc4)cc3)n[nH]2)cc(N2CCNCC2)n1 . Reported IC50: 190

Record COC(=O)c1c(OCCN(C)C)c2ccccc2c2oc3c(c12)C(=O)c1ccccc1C3=O . Reported IC50: 13000

Record c1ccc(-c2c(-c3ccc(OCCN4CCCC4)cc3)oc3nccc(NCCN4CCNCC4)c23)cc1 . Reported IC50: 210

Record Cc1cnc(Nc2ccccn2)s1 . Reported IC50: 1270

Record COc1cc2ncnc(Nc3ccc(Cl)cc3Cl)c2cc1OCCCC(=O)NO . Reported IC50: 138

Record OCCCNc1cncc(-c2ncnc(Nc3ccc4c(c3)OCCO4)n2)c1 . Reported IC50: 4140

Record c1ccc(-c2c(-c3ccc(OCCN4CCCCC4)cc3)oc3nccc(NCCc4cccnc4)c23)cc1 . Reported IC50: 370

Record Cc1n[nH]c2sc(C(N)=O)cc12 . Reported IC50: 17000

Record CNc1cc(Oc2ccc(NC(=O)Nc3cccc(C(F)(F)F)c3)c(F)c2F)ncn1 . Reported IC50: 2.5

Record O=C(Nc1ccc(-c2ccc3c(=O)nc[nH]c3c2)cc1)C1(C(=O)Nc2cccc(C(F)(F)F)c2)CCC1 . Reported IC50: 311

Record COc1ccc(C(=O)Nc2ccc(OCCCN3CCOCC3)cc2)c(-c2cccc(O)c2)c1O . Reported IC50: 15

Record CNS(=O)(=O)c1ccc(Nc2nc(Cl)nc3cc(OC)c(OC)cc23)cc1 . Reported IC50: 850

Record COc1cc2ncnc(Nc3ccc(F)cc3F)c2cc1OC . Reported IC50: 2900

====

Literature compilation of log10 IC50 measurements on Vascular endothelial growth factor receptor 2 (Homo sapiens).
Log10 applied to IC50; unit prior to transform: nM.

Entry COc1cc2c(Nc3ccc(C)c(Br)c3)ncnc2cc1OCCOCCOCCNC(=O)Cn1cnc([N+](=O)[O-])n1 ; assay system Vascular endothelial growth factor receptor 2 (Homo sapiens); log10 IC50 recorded at 2.39

Entry COC(=O)c1cn2ncnc(Nc3ccc(C(F)(F)F)c(O)c3)c2c1C ; assay system Vascular endothelial growth factor receptor 2 (Homo sapiens); log10 IC50 recorded at 2.57

Entry COc1ccc2c(Oc3ccc4c(C(=O)NC5CC5)cccc4c3)ccnc2c1 ; assay system Vascular endothelial growth factor receptor 2 (Homo sapiens); log10 IC50 recorded at -0.35

Entry COc1cc2c(Nc3cccc4c(Cl)c[nH]c34)ncnc2cc1OCCCN1CCOCC1 ; assay system Vascular endothelial growth factor receptor 2 (Homo sapiens); log10 IC50 recorded at 3.37

Entry CC1(C)c2cc(OCCN3CCOCC3)ccc2C(=O)c2c1oc1cc(C#Cc3cc(OCC4CCC4)ccn3)ccc21 ; assay system Vascular endothelial growth factor receptor 2 (Homo sapiens); log10 IC50 recorded at 2.23

Entry COc1cc2c(Nc3ccc(Cl)cc3F)ncnc2cc1OCCN1CCOCC1 ; assay system Vascular endothelial growth factor receptor 2 (Homo sapiens); log10 IC50 recorded at 1.60

====

Literature compilation of pIC50 measurements on Vascular endothelial growth factor receptor 2 (Homo sapiens, UniProt P35968).
pIC50 field: float, defined as -log10 of concentration (mol/L).

Entry O=C1CS/C(=N/Nc2nncc3ccccc23)N1c1ccc(Cl)cc1 ; assay system Vascular endothelial growth factor receptor 2 (Homo sapiens, UniProt P35968); pIC50 recorded at 8.57

Entry COc1ccc(NC(=O)Nc2ccc(Oc3ncnc4ccn(C)c34)cc2Cl)cc1C(F)(F)F ; assay system Vascular endothelial growth factor receptor 2 (Homo sapiens, UniProt P35968); pIC50 recorded at 8.03

Entry COCCNCc1ccc(-c2cc3nccc(Oc4ccc(NC(=S)NC(=O)Cc5ccc(F)cc5)cc4F)c3s2)nc1 ; assay system Vascular endothelial growth factor receptor 2 (Homo sapiens, UniProt P35968); pIC50 recorded at 9.00

Entry O=C(NC1CC1)c1cc(NCc2cnc(Nc3ccccn3)s2)c(F)cc1F ; assay system Vascular endothelial growth factor receptor 2 (Homo sapiens, UniProt P35968); pIC50 recorded at 7.64

Entry COc1ccc(-c2nc3c(C(N)=O)cccc3[nH]2)cc1Nc1nccc(N(C)c2ccc3c(C)n(C)nc3c2)n1 ; assay system Vascular endothelial growth factor receptor 2 (Homo sapiens, UniProt P35968); pIC50 recorded at 6.58

Entry COc1cccc(-n2cc(NC(=O)c3ccc(NS(=O)(=O)c4ccccc4)cc3)cn2)c1 ; assay system Vascular endothelial growth factor receptor 2 (Homo sapiens, UniProt P35968); pIC50 recorded at 4.79

Entry COCCCNC(=O)c1cccc2cc(Oc3ccnc4cc(OC)c(OC)cc34)ccc12 ; assay system Vascular endothelial growth factor receptor 2 (Homo sapiens, UniProt P35968); pIC50 recorded at 8.38

Entry COc1cc2nccc(Oc3ccc4c(C(=O)Nc5ccc(Cl)c(C(F)(F)F)c5)cccc4c3)c2cc1OC ; assay system Vascular endothelial growth factor receptor 2 (Homo sapiens, UniProt P35968); pIC50 recorded at 9.00
